These entries and their values trace back to paper PMC3384305.

Biological target: T1, NHTF (NHTF C-His) (UniProt Q7DDD9 1-106)
T1 sequence: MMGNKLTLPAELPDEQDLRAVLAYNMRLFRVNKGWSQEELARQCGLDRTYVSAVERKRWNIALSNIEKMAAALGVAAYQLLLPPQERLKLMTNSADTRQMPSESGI
Experiment: EMSA

>  <BINDER>
NHTF 5'UTR fragment 3 (dsDNA) DNA 1: CTTTTTTTTGGCTTTTATGTGAAGTAAAATCCGTAACAGC DNA 2: GCTGTTACGGATTTTACTTCACATAAAAGCCAAAAAAAAG

>  <binding result>
binds

$$$$
>  <BINDER>
Specific 25-mer (dsDNA) DNA 1: TATGTGAAGTAAAATCCGTAACAGC DNA 2: GCTGTTACGGATTTTACTTCACATA

>  <binding result>
binds

$$$$
